assay: Selectivity index, ratio of CC50 for cytotoxicity against human HPAEpic cells to IC50 for antiproliferative activity against human A549 cells; conditions: HPAEpic cells (CC50) versus A549 cells (IC50)
quantity: selectivity ratio
Would you mind answering with just the numeric figure?

Please give the measured selectivity ratio for this molecule: Nc1nc2[nH]cc(CCc3ccc(C(=O)N[C@@H](CCC(=O)O)C(=O)O)cc3)c2c(=O)[nH]1 [PEMETREXED DISODIUM]
7.71

====

experiment: Selectivity index, ratio of CC50 for cytotoxicity against human IOSE-80 cells to IC50 for antiproliferative activity against human OVCAR3 cells; conditions: IOSE-80 cells (CC50) versus OVCAR3 cells (IC50)
quantity: selectivity ratio
Would you mind answering with just the numeric figure?

Please give the measured selectivity ratio for this compound: Nc1nc2[nH]cc(CCc3ccc(C(=O)N[C@@H](CCC(=O)O)C(=O)O)cc3)c2c(=O)[nH]1 [PEMETREXED DISODIUM]
3.56

====

experiment: Cytotoxicity against human HPAEpic cells assessed as reduction in cell viability after 24 hrs by MTT assay; assay type: cell-based; details: 24 h

| structure as smiles | CC50 |
| --- | --- |
| O=c1[nH]cc(S(=O)(=O)Nc2ccccc2-c2cn(-c3ccc(F)cc3)nn2)c(=O)[nH]1 | Non-Toxic |
| Cc1ccccc1-n1cc(-c2ccc(NS(=O)(=O)c3c[nH]c(=O)[nH]c3=O)cc2)nn1 | Non-Toxic |
| O=c1[nH]cc(S(=O)(=O)Nc2cccc(-c3cn(-c4ccccc4F)nn3)c2)c(=O)[nH]1 | Non-Toxic |

====

// CC50 at 24 h lookup, one value per entry
assay: Cytotoxicity against human L02 cells assessed as reduction in cell viability after 24 hrs by MTT assay; assay type: cell-based; conditions: L02 cells
Reply numerically in µM, unit not repeated.

| structure as smiles | CC50 at 24 h [µM] |
| --- | --- |
| O=c1[nH]cc(S(=O)(=O)Nc2cccc(-c3cn(-c4ccc(Cl)cc4)nn3)c2)c(=O)[nH]1 | 9.86 |
| Cc1ccccc1-n1cc(-c2cccc(NS(=O)(=O)c3c[nH]c(=O)[nH]c3=O)c2)nn1 | 15.3 |

Let us examine a further case.
Please give the measured CC50 at 24 h for this molecule: O=c1[nH]cc(S(=O)(=O)Nc2ccccc2-c2cn(-c3ccccc3Cl)nn2)c(=O)[nH]1
22.8

====

molecular target: Thymidylate synthase (Homo sapiens, UniProt P04818)
Sequence (P04818 whole entry): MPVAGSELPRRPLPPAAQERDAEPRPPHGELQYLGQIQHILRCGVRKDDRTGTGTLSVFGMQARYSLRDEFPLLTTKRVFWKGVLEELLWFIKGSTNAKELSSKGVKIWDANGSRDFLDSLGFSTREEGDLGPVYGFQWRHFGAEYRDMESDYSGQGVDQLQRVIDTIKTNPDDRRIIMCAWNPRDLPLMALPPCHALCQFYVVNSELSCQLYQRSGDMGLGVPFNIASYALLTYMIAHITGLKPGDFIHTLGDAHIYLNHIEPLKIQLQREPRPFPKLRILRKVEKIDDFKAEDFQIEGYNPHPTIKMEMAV
quantity: IC50
Report field: quantity (unit follows the number).

Please give the measured IC50 for this molecule: Nc1nc2[nH]cc(CCc3ccc(C(=O)N[C@@H](CCC(=O)O)C(=O)O)cc3)c2c(=O)[nH]1 [PEMETREXED DISODIUM]
2040 nM

====

experiment: Cytotoxicity against human HPAEpic cells assessed as reduction in cell viability after 24 hrs by MTT assay; type: cell-based; conditions: HPAEpic cells
// CC50 at 24 h lookup, one value per entry
Reply numerically in µM, unit not repeated.

Completed entries (count: 8):
| structure as smiles | result |
| --- | --- |
| O=c1[nH]cc(S(=O)(=O)Nc2ccc(-c3cn(-c4cccc(Cl)c4)nn3)cc2)c(=O)[nH]1 | 13.8 |
| Cc1ccc(-n2cc(-c3ccc(NS(=O)(=O)c4c[nH]c(=O)[nH]c4=O)cc3)nn2)cc1 | 29.1 |
| O=c1[nH]cc(S(=O)(=O)Nc2cccc(-c3cn(-c4ccccc4Cl)nn3)c2)c(=O)[nH]1 | 12.3 |
| Cc1ccccc1-n1cc(-c2cccc(NS(=O)(=O)c3c[nH]c(=O)[nH]c3=O)c2)nn1 | 10.2 |
| Cc1cccc(-n2cc(-c3ccc(NS(=O)(=O)c4c[nH]c(=O)[nH]c4=O)cc3)nn2)c1 | 31.3 |
| O=c1[nH]cc(S(=O)(=O)Nc2ccccc2-c2cn(-c3ccccc3Cl)nn2)c(=O)[nH]1 | 17.7 |
| O=c1[nH]cc(S(=O)(=O)Nc2cccc(-c3cn(-c4ccccc4)nn3)c2)c(=O)[nH]1 | 41.5 |
| O=c1[nH]cc(S(=O)(=O)Nc2cccc(-c3cn(-c4cccc(Cl)c4)nn3)c2)c(=O)[nH]1 | 10.2 |

Let us examine a further case.
Please give the measured CC50 at 24 h for this compound: O=c1[nH]cc(S(=O)(=O)Nc2ccccc2-c2cn(-c3ccccc3)nn2)c(=O)[nH]1
14.3

Source: ChEMBL document CHEMBL4346687
